# Test system: SF-539 CNS
# Protocol details: NCI tumour cell line growth inhibition, 48 h; in the data active means GI50 below about 0.43 µM; inactive means the rest
Where a SMILES comes first, the peptide text is derived from it. The star is where a group is joined. Palmitoyl = CCCCCCCCCCCCCCCC(=O)*
Result category, one only: active, inactive

Data request: Fill in: this test's call for N#CC(I)CS(=O)(=O)c1ccccc1 (configuration not stated) is ___
Data returned: inactive

Data request: Fill in: this test's call for NC(N)=Nc1nc2ccccc2o1 is ___
Data returned: inactive

Data request: Fill in: this test's call for COC(=O)c1c2c(c(C)[n+]([O-])c1C)C(=O)C(NCc1ccc(Br)cc1)=CC2=O is ___
Data returned: inactive

Data request: Fill in: this test's call for CCCCCCCCCCCCCCCC(=O)N1CCCC1C(=O)NCC(=O)NC(Cc1ccccc1)C(=O)N1CCCC1C(=O)NC(CO)C(=O)NC(Cc1ccc(O)cc1)C(=O)NC(CCCCN)C(=O)NC(CC(C)C)C(=O)NC(CCCN=C(N)N)C(=O)N1CCCC1C(=O)NCC(N)=O (configuration not stated) (Palmitoyl-PGFPSYKLRPG-NH2; configuration not given here) is ___
Data returned: inactive

Data request: Fill in: this test's call for COC(=O)/C=C/c1cc(OC(C)=O)c2c(c1)C(C(=O)OC)C(c1ccc(OC(C)=O)c(OC(C)=O)c1)O2 (configuration not stated) is ___
Data returned: active

Data request: Fill in: this test's call for O=C(Nc1nc(-c2c[nH]c3ccccc23)cs1)c1n[nH]c(=O)c2ccccc12 is ___
Data returned: inactive

Data request: Fill in: this test's call for C[C@H](CCOc1cccc(CC(=O)O)c1)N(Cc1cccc(C(F)(F)F)c1Cl)CC(c1ccccc1)c1ccccc1 is ___
Data returned: inactive

* * *

# Test system: RXF 393 renal
# Protocol details: NCI tumour cell line growth inhibition, 48 h; in the data active = GI50 below about 0.43 µM; inactive = the rest
Where a SMILES comes first, the peptide text is derived from it. The star is where a group is joined. Palmitoyl = CCCCCCCCCCCCCCCC(=O)*
Result category, one only: active, inactive

Data request: Fill in: this test's call for C=CC1(C)CC(=O)C2(O)C(C)(O1)C(OC(C)=O)C(O)C1C(C)(C)CCC(O)C12C (stereo not given) is ___
Data returned: inactive

Data request: Fill in: this test's call for CO[C@@H]1CC[C@]2(C)OC[C@H](C)[C@@H]3C[C@@H](C)[C@@H](OC(C)=O)[C@@H]4[C@H]3[C@@H]2O[C@H]4C[C@@]1(C)O is ___
Data returned: inactive

Data request: Fill in: this test's call for C=CC12CCN(CC1)C(C(O)c1ccnc3ccc(OC)cc13)C2 (stereo not given) is ___
Data returned: inactive

Data request: Fill in: this test's call for COc1ccc(Cl)cc1NC(=O)c1ccc(NC2=C(Cl)C(=O)N(Cc3ccccc3)C2=O)cc1 is ___
Data returned: inactive

Data request: Fill in: this test's call for NCCCn1c2c(c3ccc([N+](=O)[O-])cc3c1=O)C(=O)c1cc(I)ccc1-2 is ___
Data returned: inactive

Data request: Fill in: this test's call for C[C@H](CCOc1cccc(CC(=O)O)c1)N(Cc1cccc(C(F)(F)F)c1Cl)CC(c1ccccc1)c1ccccc1 is ___
Data returned: inactive

Data request: Fill in: this test's call for CN(C)CCN1CCC(Cc2ccccc2)CC1 is ___
Data returned: inactive

Data request: Fill in: this test's call for O=c1cccc(C#CC#C[C@@H]2O[C@H]2CO)o1 is ___
Data returned: inactive

Data request: Fill in: this test's call for C=C(C)[C@@H]1CC[C@]2(CN)CC[C@]3(C)[C@H](CC[C@@H]4[C@@]5(C)CCCNC(C)(C)[C@@H]5CC[C@]43C)[C@@H]12 is ___
Data returned: inactive

Data request: Fill in: this test's call for COc1nc(=O)n(C2C=CC(=O)O2)cc1F (stereo not given) is ___
Data returned: inactive

Data request: Fill in: this test's call for CCCCCCCCCCCCCCCC(=O)N1CCCC1C(=O)NCC(=O)NC(Cc1ccccc1)C(=O)N1CCCC1C(=O)NC(CO)C(=O)NC(Cc1ccc(O)cc1)C(=O)NC(CCCCN)C(=O)NC(CC(C)C)C(=O)NC(CCCN=C(N)N)C(=O)N1CCCC1C(=O)NCC(N)=O (stereo not given) (Palmitoyl-PGFPSYKLRPG-NH2; configuration not given here) is ___
Data returned: inactive

Data request: Fill in: this test's call for N#CC(I)CS(=O)(=O)c1ccccc1 (stereo not given) is ___
Data returned: inactive

Data request: Fill in: this test's call for O=C(NCCCl)O/N=C/c1cccnc1 is ___
Data returned: inactive

Data request: Fill in: this test's call for CCCCCCn1c(-c2ccc(C(=O)O/N=C(\N)c3ccc4c(c3)OCO4)cc2)nc(-c2ccccc2)c1-c1ccccc1 is ___
Data returned: inactive

Data request: Fill in: this test's call for O=c1[nH]c(-c2cccc(F)c2)cc2cc(F)ccc12 is ___
Data returned: active
